Origin of measurements: patent US20130251724A1

Tgt: T1, Human OSM (human, UniProt P13725 26-221)
T1 construct: Recombinant human OSM; also called hOSM; human Oncostatin M
T1 sequence: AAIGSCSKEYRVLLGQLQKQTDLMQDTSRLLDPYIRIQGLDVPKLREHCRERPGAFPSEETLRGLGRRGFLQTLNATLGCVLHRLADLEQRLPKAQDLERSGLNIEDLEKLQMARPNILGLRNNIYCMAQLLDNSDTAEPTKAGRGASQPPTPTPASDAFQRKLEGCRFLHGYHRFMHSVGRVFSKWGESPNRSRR
Experimental details: SPR (ProteOn XPR36 or Biacore T100), captured supernatant, OSM as analyte
Parameter: pKd
Quick note: pKd means taking -log10 of the concentration in moles per liter.

Pos 96 His (antibody, V domains shown, also called CDRH3 V96>H) VH: EVQLVESGGGLVQPGGSLRLSCAASGFTFSSYAMSWVRQAPGKGLEWVATISDGGSFTYYLDNVRGRFTISRDNAKNSLYLQMNSLRAEDTAVYYCARDHGHTTFWYFDVWGRGTLVTVSS VL: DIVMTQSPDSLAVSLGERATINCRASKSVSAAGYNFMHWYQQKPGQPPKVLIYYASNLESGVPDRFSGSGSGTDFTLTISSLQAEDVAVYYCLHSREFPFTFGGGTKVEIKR = 9.32
Pos 97 Phe (antibody, V domains shown, also called CDRH3 G97>F) VH: EVQLVESGGGLVQPGGSLRLSCAASGFTFSSYAMSWVRQAPGKGLEWVATISDGGSFTYYLDNVRGRFTISRDNAKNSLYLQMNSLRAEDTAVYYCARDVFHTTFWYFDVWGRGTLVTVSS VL: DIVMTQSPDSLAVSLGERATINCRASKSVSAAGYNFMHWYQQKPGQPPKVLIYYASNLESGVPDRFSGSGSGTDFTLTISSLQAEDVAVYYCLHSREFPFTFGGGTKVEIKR = 9.20
Pos 100C Gly (antibody, V domains shown, also called CDRH3 Y100C>G) VH: EVQLVESGGGLVQPGGSLRLSCAASGFTFSSYAMSWVRQAPGKGLEWVATISDGGSFTYYLDNVRGRFTISRDNAKNSLYLQMNSLRAEDTAVYYCARDVGHTTFWGFDVWGRGTLVTVSS VL: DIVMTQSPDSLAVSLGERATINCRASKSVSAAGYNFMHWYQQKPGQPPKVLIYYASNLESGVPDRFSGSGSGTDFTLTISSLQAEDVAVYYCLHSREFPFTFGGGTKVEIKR = 9.41

Please look at the following binder next.
Task: Given the entry Pos 100B Glu (antibody, V domains shown, also called CDRH3 W100B>E) VH: EVQLVESGGGLVQPGGSLRLSCAASGFTFSSYAMSWVRQAPGKGLEWVATISDGGSFTYYLDNVRGRFTISRDNAKNSLYLQMNSLRAEDTAVYYCARDVGHTTFEYFDVWGRGTLVTVSS VL: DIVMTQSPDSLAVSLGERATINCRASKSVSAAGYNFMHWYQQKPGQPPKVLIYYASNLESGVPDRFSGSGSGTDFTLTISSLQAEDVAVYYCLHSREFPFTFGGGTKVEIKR , report its measured pKd.
Result: 9.31
